Biological target: h-mT1R2-471/mT1R3 (UniProt Q8TE23+Q925D8, A537S/A564V/A568V/A570T/A649T/A658V/A782V/D480N/E530V/E534N/E542M/E548N/F525Y/F665L/G696N/G701T/H484Y/H528R/I481V/I486P/I490V/I510L/I518V/I595M/I643V/I645L/I692L/I695G/K476T/K504M/K626T/K714N/L471T/L521P/L571I/L578I/L610P/L631F/L636F/L639V/L688V/L702I/L734M/L800F/M492I/M616G/M682V/M690V/M748V/N477Y/N540G/N541S/N721H/P638T/P824S/Q472E/Q474R/Q479S/Q536L/Q546K/Q555R/Q676H/R473T/R498S/R667S/S501P/S547N/S550A/S628F/S663R/S670G/S681F/S703N/S727G/S784D/S804G/T529S/T549I/T609V/T629S/T642S/T705I/T706G/T716I/V508I/V512P/V557A/V585L/V613L/V617M/V673M/V687A/V691A/V694A/V718L/V741L/V774I/V791M/Y533F/Y615F/Y671F/Y769S/Y783H)
Sequence (Q8TE23 with tags, fused parts or gaps with the stated changes limits assumed): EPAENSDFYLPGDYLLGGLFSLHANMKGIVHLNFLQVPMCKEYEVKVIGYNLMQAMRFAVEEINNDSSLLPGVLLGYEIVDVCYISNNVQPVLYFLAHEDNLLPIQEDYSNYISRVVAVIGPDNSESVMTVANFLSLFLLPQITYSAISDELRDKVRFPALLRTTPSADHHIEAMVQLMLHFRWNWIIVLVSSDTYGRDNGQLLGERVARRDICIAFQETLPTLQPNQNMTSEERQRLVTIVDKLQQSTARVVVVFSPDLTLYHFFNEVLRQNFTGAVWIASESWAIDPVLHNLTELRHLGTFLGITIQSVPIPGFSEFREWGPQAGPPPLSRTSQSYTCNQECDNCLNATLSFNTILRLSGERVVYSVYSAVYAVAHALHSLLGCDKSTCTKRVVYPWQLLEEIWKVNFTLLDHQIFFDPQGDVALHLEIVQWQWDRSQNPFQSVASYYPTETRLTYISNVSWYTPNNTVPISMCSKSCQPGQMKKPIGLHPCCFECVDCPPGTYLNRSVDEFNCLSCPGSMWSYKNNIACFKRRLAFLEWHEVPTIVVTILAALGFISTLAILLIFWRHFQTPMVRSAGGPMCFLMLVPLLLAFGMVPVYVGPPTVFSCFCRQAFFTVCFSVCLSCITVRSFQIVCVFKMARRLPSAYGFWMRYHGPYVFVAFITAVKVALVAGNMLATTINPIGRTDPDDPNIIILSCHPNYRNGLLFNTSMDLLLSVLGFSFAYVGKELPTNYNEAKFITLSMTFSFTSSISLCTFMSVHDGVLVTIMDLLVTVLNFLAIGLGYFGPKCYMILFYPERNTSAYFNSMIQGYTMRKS
Sequence (Q925D8 21-858, stated change not applied): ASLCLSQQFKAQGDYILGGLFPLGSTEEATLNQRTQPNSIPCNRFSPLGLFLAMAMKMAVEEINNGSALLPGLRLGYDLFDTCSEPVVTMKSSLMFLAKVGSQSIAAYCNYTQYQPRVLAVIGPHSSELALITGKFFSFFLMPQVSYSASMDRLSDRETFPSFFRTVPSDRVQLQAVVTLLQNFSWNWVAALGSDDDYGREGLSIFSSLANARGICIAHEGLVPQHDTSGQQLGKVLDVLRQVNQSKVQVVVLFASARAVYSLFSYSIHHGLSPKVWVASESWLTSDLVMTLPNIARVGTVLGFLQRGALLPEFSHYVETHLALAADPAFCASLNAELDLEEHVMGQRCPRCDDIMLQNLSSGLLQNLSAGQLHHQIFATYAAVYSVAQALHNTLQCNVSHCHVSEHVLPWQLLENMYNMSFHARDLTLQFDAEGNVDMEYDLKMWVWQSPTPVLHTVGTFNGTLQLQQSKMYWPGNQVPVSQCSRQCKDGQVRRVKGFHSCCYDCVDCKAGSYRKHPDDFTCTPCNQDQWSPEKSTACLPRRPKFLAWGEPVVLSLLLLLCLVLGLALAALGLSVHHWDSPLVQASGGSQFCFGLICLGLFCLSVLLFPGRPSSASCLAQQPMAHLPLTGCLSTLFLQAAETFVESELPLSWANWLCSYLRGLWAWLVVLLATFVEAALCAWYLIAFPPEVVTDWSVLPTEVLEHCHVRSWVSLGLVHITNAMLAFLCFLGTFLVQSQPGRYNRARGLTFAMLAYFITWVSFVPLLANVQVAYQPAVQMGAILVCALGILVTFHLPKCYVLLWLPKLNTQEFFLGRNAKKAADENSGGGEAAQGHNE
Details: Table 4; genes h-mT471/mT3 (h-mT1R2-471, mT1R3); HEK293E cells
Experimental: The HEK293E cells maintained by using the DMEM/Ham's F-12 medium (Nakarai Tesque) containing 10% fetal bovine serum ([…]) and 1% Pen Strep (GIBCO) were washed with D-PBS(−) (Nakarai Tesque), and collected from the flask by using 0.25% Trypsin EDTA (GIBCO). […] Furthermore, by using the ΔF/F values obtained when each sweet taste substance was added, the S/N ratio was calculated. […]
Residues, ends and D or L forms follow the SMILES beside them.
Response field label: string, one of True (S/N strictly below 4) or False.

Some solved entries appear below for comparison.
compound	groupLabel
COC(=O)[C@H](Cc1ccccc1)NC(=O)[C@H](CC(=O)O)NCCCc1ccc(OC)c(O)c1	False
OC[C@H]1O[C@H](O[C@]2(CCl)O[C@H](CCl)[C@@H](O)[C@@H]2O)[C@H](O)[C@@H](O)[C@H]1Cl	False
COC(=O)[C@H](Cc1ccccc1)NC(=O)[C@H](CC(=O)O)NCCC(C)(C)C	False
O=C1NS(=O)(=O)c2ccccc21.[Na] [Saccharin Na, sodium saccharin]	True
CC1=CC(=O)NS(=O)(=O)O1	True

Here's an entry: COC(=O)[C@H](Cc1ccccc1)NC(=O)[C@@H](N)CC(=O)O [Aspartame, aspartame] (HELM PEPTIDE1{D.F.[CO[*:1]]}$$$$V2.0) . Is its S/N below 4? False

Here's an entry: OC[C@H]1O[C@@](CO)(O[C@H]2O[C@H](CO)[C@@H](O)[C@H](O)[C@H]2O)[C@@H](O)[C@@H]1O . Is its S/N below 4? True

Here's an entry: C[C@H](NC(=Nc1ccc(C#N)cc1)NCC(=O)O)c1ccccc1 . Is its S/N below 4? False
